Cited source for all entries: patent US20230287088A1

target: T1, Mouse-Fc-tagged SARS-CoV2 S1-RBD (Sino Biologicals) recombinant protein (SARS-CoV-2, UniProt P0DTC2 319-541); experiment: ELISA on coated S1-RBD-mFc
T1 construct: domain: S1-RBD
metric: EC50 (ng/mL)
Kindly answer with a numeric value in ng/mL, unit omitted.

Input: Consider the binder shown here: P043.A.00024.C11 (protein sample ID 451) (antibody, V domains shown) VH: QSVEESGGRLVTPGTPLTLTCTVSGFSLSSYAMSWVRQAPGKGLEWIGIISSSGTTYYASWAKGPFTISKTSTTVDLKITSPTTEDTATYFCARGGAGYGYAHYYGMDPWGPGTLVTVSS VL: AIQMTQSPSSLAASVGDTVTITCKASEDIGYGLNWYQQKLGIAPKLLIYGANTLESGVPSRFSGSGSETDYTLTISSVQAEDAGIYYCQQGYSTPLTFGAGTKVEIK What is its recorded EC50?
Output: 6.4

Input: Quick one: P043.A.00020.D06 (protein sample ID 444) (antibody, V domains shown) VH: QSVEESGGRLVTPGTPLTLTCTVSGFSLSSYAMNWVRQAPGKGLEWIGIISSSGSTYYASWAKGRFTISKTSTTVDLKITSPTTEDTATYFCARVGAGYAGYGYDNYYGMDPWGPGTLVTVSS VL: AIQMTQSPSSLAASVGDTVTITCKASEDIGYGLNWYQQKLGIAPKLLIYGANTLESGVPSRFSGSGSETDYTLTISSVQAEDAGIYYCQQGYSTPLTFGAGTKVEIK
Output: 8.2

Input: Quick one: P043.A.00023.A08 (protein sample ID 446) (antibody, V domains shown) VH: QSVEESGGRLVTPGTPLTLTCTVSGFSLSKYAMSWVRQAPGKGLEWIGIISSGGSTYYASWAKGRFTISKTSSTTVDLKITSPTTEDTATYFCARAGYPGYSPHYFNIWGPGTLVTVSL VL: AIQMTQSPSSLAASVGDTVTITCKASEDIGYELNWYQQKLGIAPKLLIYGANTLESGVPSRFTGSGSETDYTLTISSVQAEDAGIYYCQQGYSTPPTFGAGTKVEIK
Output: 7

Input: Quick one: P043.A.00018.C02 (protein sample ID 450) (antibody, V domains shown) VH: QSVEESGGRLVTPGTPLTLTCTVSGFSLSSYAMSWVRQAPGKGLEWIGIINSGRSTYYASWAKGRFTISKTSTTVDLKITSPTTEDTATYFCARDATSIGYYRYYGMDPWGPGTLVTVSS VL: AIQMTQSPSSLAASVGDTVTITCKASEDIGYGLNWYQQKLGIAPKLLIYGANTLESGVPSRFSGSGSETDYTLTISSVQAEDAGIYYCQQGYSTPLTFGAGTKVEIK
Output: 7.7

Input: Quick one: P043.A.00017.E07 (protein sample ID 449) (antibody, V domains shown) VH: QSVEESGGRLVTPGTPLTLTCTVSGFSLSSYAMSWVRQAPGKGLEWIGIISSSGSTYYASWAKGRFTISKTSTTVDLKITSPTTEDTATYFCARAMYPGYSTGVYNIWGPGTLVTVSL VL: AIQMTQSPSSLAASVGDTVTITCKASEDIGYELNWYQQKLGIAPKLLIYGANTLESGVPSRFSGSGSETDYTLTISSVQAEDAGIYYCQQGYNTPNTFGAGTKVEIK
Output: 6.5
